The measured values listed here are drawn from patent US20170298096A1.

Record form. Attribute: ELISA signal. Fill in for each entry.
target: T1, His-tagged P3028 (human, not fully specified); test: chip ELISA
T1 construct: the tag is put first after 'PGE73=His-tag-P3028'; also called PGE73; not shown: His-tag
T1 peptide: {His‑tag}-VFDEFKPLVEEPQNLIK
No end group written: not given here.
One number for each entry.

Solved entries:
binder	measured_value
KKLDFFFVKLSLFTER [P28R T5F]	290
KNLDTFFVKLSLFTER [P28R K2N]	432
KKLDTFFVKLSLFTEY [P28R R16Y]	311

Turning now to a further binder:
ELISA signal for KKLDTFFVKLQLFTER [P28R S11Q] ?
768
